# MEASURED ON: Neuropeptide S receptor (Homo sapiens)
# TEST METHOD NOTES: qHTS Assay for Antagonists of the Neuropeptide S Receptor: cAMP Signal Transduction; also: nearly all actives have a fitted effect of over 50% in size
# CONDITION PARAMETERS: CHO-NPSR cells, cAMP TR-FRET, antagonist mode; series mostly up to 38.3 µM
# Description: NIH Chemical Genomics Center [NCGC] NIH Molecular Libraries Probe Production centers Network [MLPCN] […] This change in intracellular cAMP level can be detected by a homogeneous LANCE cAMP assay based on the TR-FRET (time resolved fluorescence resonance energy transfer) between a europium-labeled cAMP tracer complex and a cAMP-specific antibody labeled with Alexa Fluor 647. […] Both emission signals from the FRET donor (620 nm) and the acceptor (665 nm) can be detected by a plate reader in the TRF mode. […]
Among all 220,000 compounds or so, about 2,300 (1%) were called active. About 6% were inconclusive and are not listed. Calls follow the shape of the dose curve; as a rule, active = well fitted inhibition curve with a large enough effect; inconclusive = small, poorly fitted or top-dose-only effect, or effect the other way; inactive = no such curve, though single readings can be large or run the other way. The list comes from a sample in which actives are over-represented; it also holds close analogues and randomly drawn compounds.
Labels: active, inactive

- C=CCn1c(=S)[nH]c2nc3c(cc2c1=O)COC(C)(C)C3: inactive
- Cc1ccc(C(O)P(=O)(OC(C)C)c2ccc(N(C)C)cc2)cc1 (stereo not given): inactive
- COc1ccc(NC(=S)Nc2ccccc2Cl)cn1: inactive
- COc1ccc(NC(=O)/C(Cl)=C(/Cl)S(=O)Cc2ccc(C)cc2)cn1 (stereo not given): active
- O=C(Nc1ccccc1)/C(=C/c1ccc([N+](=O)[O-])cc1)NC(=O)c1ccccc1: inactive
- O=C(Nc1ccc(Cl)cc1)/C(=C1\CCCN1)[N+](=O)[O-]: inactive
- O=C(NNC(=S)NC1CC2CCC1C2)c1ccc(Cl)cc1 (stereo not given): inactive
- CC1(C)Cc2nc3sc4c(SCC(=O)NC(c5ccccc5)c5ccccc5)ncnc4c3cc2CO1: active
- Cc1cccc(NC(=O)c2sc(-c3ccccc3)nc2-c2ccc([N+](=O)[O-])cc2)c1: inactive
- Cc1noc(C)c1S(=O)(=O)Nc1cc(C(F)(F)F)ccc1N1CCOCC1: inactive

###

# MEASURED ON: Neuropeptide S receptor (Homo sapiens) (UniProt Q6W5P4)
# Sequence (Q6W5P4 whole entry, looked up): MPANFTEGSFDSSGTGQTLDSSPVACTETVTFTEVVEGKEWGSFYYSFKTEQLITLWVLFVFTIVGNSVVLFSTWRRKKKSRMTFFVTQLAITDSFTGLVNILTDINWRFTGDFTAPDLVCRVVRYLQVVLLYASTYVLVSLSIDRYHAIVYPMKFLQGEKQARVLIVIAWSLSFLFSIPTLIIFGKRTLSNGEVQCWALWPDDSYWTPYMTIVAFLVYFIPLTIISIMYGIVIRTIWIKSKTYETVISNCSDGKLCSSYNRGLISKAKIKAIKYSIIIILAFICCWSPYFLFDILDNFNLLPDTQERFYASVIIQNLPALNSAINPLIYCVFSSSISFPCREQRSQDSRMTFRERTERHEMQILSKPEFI
# TEST METHOD NOTES: qHTS Assay for Antagonists of the Neuropeptide S Receptor: cAMP Signal Transduction; also: nearly all actives have a fitted effect of over 50% in size; also: potency is read from the fitted curve at half-maximal effect
# CONDITION PARAMETERS: CHO-NPSR cells, cAMP TR-FRET, antagonist mode; series mostly up to 38.3 µM
Out of some 220,000 compounds screened, about 2,300 (1%) were called active. Another 6% or so got no clear call; they are omitted. Many of the other results were omitted from the sample, so actives are more common in it than they were.
MEASUREMENT NAME: Potency

* COc1ccc(S(=O)(=O)Nc2ccc(O)c(Sc3nc4ccccc4s3)c2)cc1 | inactive
* O=C(O)CCC(=O)Nc1nc2ccc([N+](=O)[O-])cc2s1 | inactive
* Cc1ccc(S(=O)(=O)/N=C(/NC(=S)Nc2c(C)n(C)n(-c3ccccc3)c2=O)c2ccccc2)cc1 | inactive
* C/C(=N/OC(=O)c1c(-c2c(F)cccc2Cl)noc1C)c1cnccn1 | inactive
* CC1=CC2=NC(=O)/C(=C/c3coc4ccccc4c3=O)C(=N)N2O1 | inactive
* O=C(Nc1nc2ccc([N+](=O)[O-])cc2s1)c1ccncc1 | inactive
* COc1cc(/C=C2/C(=O)NN(c3ccc(F)cc3)C2=O)cc([N+](=O)[O-])c1O | inactive
* O=C(/C(=C/c1cccc(Cl)c1)c1nc2ccccc2[nH]1)c1ccccc1 | 10 µM (active)
* CCOC(=O)c1cc2c(=O)n3ccccc3nc2n(CC(C)C)c1=NC(=O)c1c(-c2c(F)cccc2Cl)noc1C | 3.98 µM (active)
* COc1cccc(Nc2nc(N)c([N+](=O)[O-])c(NCc3ccco3)n2)c1 | inactive

Each recorded value in this set is attributed to PubChem BioAssay AID1461.
